# assay: Compound was tested for the pseudo first-order rate constants for the inhibition of the cleavage step (k2) of the hammerhead ribozyme at a concentration of 10 uM
Quick list: K2 per entry.
The figure you give is taken to be in min⁻¹; do not add the unit.

NC[C@@H]1O[C@H](O[C@H]2[C@@H](O)[C@H](O[C@@H]3[C@@H](O)[C@H](N)C[C@H](N)[C@H]3O[C@H]3O[C@H](CN)[C@@H](O)[C@H](O)[C@H]3N)O[C@@H]2CO)[C@H](N)[C@@H](O)[C@@H]1O: 0.018

For the next question, use this compound.
Value lookup for K2; key = NC[C@H]1OC(O[C@H]2[C@H](O)[C@@H](OC3O[C@H](CO)[C@@H](O)[C@H](N)[C@H]3O)[C@H](N)C[C@@H]2N)[C@H](N)C[C@@H]1O (single isomer, unassigned) 0.051

----------
# assay: Compound was tested for the pseudo first-order rate constants for the inhibition of the cleavage step (k2) of the hammerhead ribozyme at a concentration of 10 uM
reported-metric: K2 (min⁻¹)
// note: answer is a bare numeric in min⁻¹

// worked examples, K2 included
NCC1O[C@H](O[C@H]2[C@@H](O)[C@H](O[C@H]3[C@H](O)[C@@H](N)C[C@@H](N)[C@@H]3O[C@H]3O[C@H](CN)[C@@H](O)[C@H](O)[C@H]3N)O[C@@H]2CSCCOCCSSCCOCCSC[C@H]2O[C@H](O[C@@H]3[C@@H](O)[C@H](O[C@H]4O[C@H](CN)[C@@H](O)C[C@H]4N)[C@@H](N)C[C@H]3N)[C@H](O)[C@@H](N)[C@@H]2O)[C@H](N)[C@@H](O)[C@@H]1O (stereo not given in full): 0.008
NCC1O[C@H](O[C@H]2[C@@H](O)[C@H](O[C@H]3[C@H](O)[C@@H](N)C[C@@H](N)[C@@H]3O[C@H]3O[C@H](CN)[C@@H](O)[C@H](O)[C@H]3N)O[C@@H]2CSCCOCCSSCCOCCSC[C@H]2O[C@@H](O[C@H]3[C@H](O)[C@@H](N)C[C@@H](N)[C@@H]3O[C@H]3O[C@H](CN)[C@@H](O)[C@H](O)[C@H]3N)[C@H](O)[C@@H]2O[C@@H]2OC(CN)[C@H](O)[C@@H](O)[C@@H]2N)[C@H](N)[C@@H](O)[C@@H]1O (stereo not given in full): 0.003

Tell me the measured K2 of `NC[C@H]1O[C@H](O[C@H]2[C@H](O)[C@@H](O[C@H]3O[C@H](CSCCOCCSSCCOCCSC[C@H]4O[C@H](O[C@@H]5[C@@H](O)[C@H](O[C@H]6O[C@H](CN)[C@@H](O)C[C@H]6N)[C@@H](N)C[C@H]5N)[C@H](O)[C@@H](N)[C@@H]4O)[C@@H](O)[C@H](N)[C@H]3O)[C@H](N)C[C@@H]2N)[C@H](O)[C@@H](O)[C@@H]1O` , please. 0.014

I would be grateful if you could share the reported K2 for `NC[C@H]1O[C@H](O[C@H]2[C@H](O)[C@@H](O[C@H]3O[C@H](CSCCOCCSSCCOCCSC[C@H]4O[C@H](O[C@@H]5[C@@H](O)[C@H](O[C@H]6O[C@H](CN)[C@@H](O)[C@H](O)[C@H]6O)[C@@H](N)C[C@H]5N)[C@H](O)[C@@H](N)[C@@H]4O)[C@@H](O)[C@H](N)[C@H]3O)[C@H](N)C[C@@H]2N)[C@H](O)[C@@H](O)[C@@H]1O` . 0.017

Please look up its K2: NC[C@H]1O[C@H](O[C@H]2[C@H](O)[C@@H](O[C@H]3O[C@H](CSCCOCCSSCCOCCSC[C@H]4O[C@H](O[C@@H]5[C@@H](O)[C@H](O[C@H]6O[C@H](CN)[C@@H](O)C[C@H]6N)[C@@H](N)C[C@H]5N)[C@H](O)[C@@H](N)[C@@H]4O)[C@@H](O)[C@H](N)[C@H]3O)[C@H](N)C[C@@H]2N)[C@H](N)C[C@@H]1O [Tobramycin-Tobramycin] 0.011
